Assay: A CellTox Green Cytotoxicity Assay to monitor cytotoxicity in HepG2 cells - 24 hour (AID 1224878); also: nearly all actives have a fitted effect of over 45% in size; as to Cytotoxicity: % is scaled to controls: 0 for no effect and ±100 for the full control effect
Settings: CellTox Green fluorescence; series mostly up to 76.8 µM
Source text: National Center for Advancing Translational Sciences [NCATS] NIH Chemical Genomics Center [NCGC] U.S. Environmental Protection Agency [EPA] National Institutes of Environmental Health Sciences [NIEHS] National Toxicology Program [NTP] Cell-based models are critical for drug discovery. […] Viable cells produce no appreciable increases in fluorescence. Therefore, the fluorescence signal produced by the binding interaction with dead cell DNA is proportional to cytotoxicity. […]
Results filed as inconclusive are left out. Activity calls are given as the source filed them. Calls follow the shape of the dose curve; as a rule, active = well fitted activation curve with a large enough effect in the repeat runs; inconclusive = weak or mixed curves; inactive = flat fitted curve, though single readings scatter.
Your answer must be one of the following: Y for active, N for inactive

Cc1cccc(C)c1NC(=O)CN(CC(=O)O)CC(=O)O: N
C=CC(=O)OCCOCCOCCOCCOC(=O)C=C: N
COc1cc2nc(N3CCN(C(=O)C4COc5ccccc5O4)CC3)nc(N)c2cc1OC (stereo unspecified): Y
CCCCc1ncc(/C=C(\Cc2cccs2)C(=O)O)n1Cc1ccc(C(=O)O)cc1: N

Inquiry: Record lookup: outcome of this test for CC1=CCCC(C)(C)C12CCC(C)O2 (stereo unspecified) ?
Reply text: N

Inquiry: I would be grateful if you could indicate the recorded call for COc1ccc(C(=O)c2ccc(OC)cc2O)c(O)c1 .
Reply text: N

Inquiry: In this assay, the call recorded for CCc1cc(C2=C(C(=O)O)N(c3ccccc3C(F)(F)F)S(=O)(=O)c3ccccc32)cc2c1OCO2 was what?
Reply text: N

----------
Assay: qHTS assay to identify small molecule antagonists of the vitamin D receptor (VDR) signaling pathway - cell viability counter screen (AID 743225); also: % is scaled to controls: 0 for no effect and ±100 for the full control effect; nearly all actives have a fitted effect of over 50% in size
Details: VDR-bla HEK293T viability, CellTiter-Glo luminescence, 16 h; series mostly up to 61 µM
Inconclusive results are not listed. The source made the active and inactive calls. Calls come from the whole dose curve; as a rule, active = well fitted cell-killing curve with a large enough effect in the repeat runs; inconclusive = weak or mixed curves, or effect the other way; inactive = no such curve, though single readings can be large or run the other way.
quantityName: viability change, negative = cytotoxic

Examples with their reported viability change, negative = cytotoxic follow.
CCC(C)O (stereo unspecified): inactive
Brc1c2ccccc2c(Br)c2ccccc12: -26.5% [at 6.95 µM] (inactive)
CCCCCCCCCOS(=O)(=O)O: inactive
C=C(C)C(=O)OCCO: inactive
CC[N+](C)(CC)CCOC(=O)C(O)(c1ccccc1)C1CCCCC1 (stereo unspecified): inactive

Inquiry: Suppose we examine the compound CCCCC(=O)OCC(=O)[C@H]1[C@H](C)C[C@H]2[C@@H]3C[C@H](F)C4=CC(=O)C=C[C@]4(C)[C@@]3(F)[C@@H](O)C[C@@]21C ; what viability change, negative = cytotoxic value has been reported?
Reply text: inactive

----------
Experiment: qHTS assay for identifying genotoxic compounds that show differential cytotoxicity against isogenic chicken DT40 cell lines with known DNA damage response pathways - Rad54/Ku70 mutant cell line (AID 743015); also: nearly all actives have a fitted effect of over 60% in size
Details: DT40 Rad54/Ku70 mutant viability, CellTiter-Glo, 40 h; series mostly up to 66.8 µM
Results filed as inconclusive are left out. Active and inactive are the calls of the source. Calls come from the whole dose curve; as a rule, active = well fitted cell-killing curve with a large enough effect in the repeat runs; inconclusive = weak or mixed curves; inactive = no such curve, though single readings can be large or run the other way.
Select the correct class. Options are active, inactive and nothing else.

Would you please look over these solved cases?
CC(C)(C)Cl: inactive
CC(CC=O)c1ccccc1 (configuration not stated): inactive
CNC(=O)CN(CCN(CCN(CC(=O)[O-])CC(=O)NC)CC(=O)[O-])CC(=O)[O-].O.[Gd+3]: inactive

Inquiry: Status in this test for CCCCC/C=C\C/C=C\CCCCCCCC(=O)NC(C)c1ccccc1 (configuration not stated) ?
Reply text: inactive

Inquiry: Write down the call the test reported for this compound. Item: CC[N+]1(CC)CCC(=C(c2ccccc2)c2ccccc2)C1C (configuration not stated)
Reply text: active

Inquiry: Answer briefly: the call reported for COc1ccc(C)cc1[N+](=O)[O-] in this assay.
Reply text: inactive

Inquiry: What classification did Nc1cccc([N+](=O)[O-])c1 end up with in this test?
Reply text: inactive
